Attribution: ChEMBL document CHEMBL2069274

- Tested on: L6
- PROTOCOL TEXT: Cytotoxicity against rat L6 cells
- Format: cell-based
MEASURE NAME: log10 IC50 (log10 of the value in µM)
Heads up: the numbers are on a log10 scale; they represent IC50 in µM.

COMPOUND STRING: O=C(Cn1cnc([N+](=O)[O-])n1)NCc1ccc(C(F)(F)F)cc1
log10 IC50: 2.11
--
COMPOUND STRING: O=[N+]([O-])c1ncn(CCNS(=O)(=O)c2ccc(C(F)(F)F)cc2)n1
log10 IC50: 2.30
--
COMPOUND STRING: O=[N+]([O-])c1ncn(CCCCNS(=O)(=O)c2ccc(C(F)(F)F)cc2)n1
log10 IC50: 1.93
--
COMPOUND STRING: O=C(NCCCn1ccnc1[N+](=O)[O-])c1ccc(OC(F)(F)F)cc1
log10 IC50: 2.44

Return the recorded log10 IC50 value; entry: "O=[N+]([O-])c1ncn(CCNS(=O)(=O)c2cc(C(F)(F)F)cc(C(F)(F)F)c2)n1"
2.05

Return the recorded log10 IC50 value; entry: "O=[N+]([O-])c1ncn(CCCNS(=O)(=O)c2cccc3cccnc23)n1"
2.32

Return the recorded log10 IC50 value; entry: "O=C(Cn1cnc([N+](=O)[O-])n1)Nc1nc2cc(Cl)ccc2o1"
1.42

Return the recorded log10 IC50 value; entry: "O=C(NCCCn1cnc([N+](=O)[O-])n1)c1cc(C(F)(F)F)cc(C(F)(F)F)c1"
2.27

====

Item-by-item account of pIC50
- Test system: Trypanosoma brucei brucei
- PROTOCOL TEXT: Antitrypanosomal activity against bloodstream form of Trypanosoma brucei brucei Lister 427 clone 221a overexpressing tet-inducible NTR in absence of tetracycline after 3 days
- MEASUREMENT CONTEXT: 72 h
In textbook form, pIC50 equals minus log to base ten of the concentration in mol/L.

In the examples that follow, each entry is paired with its recorded pIC50.
COMPOUND: O=[N+]([O-])c1ncn(CCCNS(=O)(=O)c2ccc(C(F)(F)F)cc2)n1
RECORDED MEASUREMENT: 5.11
//
COMPOUND: O=C(Cn1ccnc1[N+](=O)[O-])NCc1ccccc1
RECORDED MEASUREMENT: 4.66
//
COMPOUND: O=C(NCCCCn1cnc([N+](=O)[O-])n1)c1ccc(OC(F)(F)F)cc1
RECORDED MEASUREMENT: 5.98
//
COMPOUND: Cc1ccc(S(=O)(=O)NCCCn2cnc([N+](=O)[O-])n2)cc1
RECORDED MEASUREMENT: 5.25

Return the recorded pIC50 value; entry: "O=C(NCCCn1cnc([N+](=O)[O-])n1)c1ccc(-c2ccccc2)cc1"
6.55

Return the recorded pIC50 value; entry: "O=[N+]([O-])c1ncn(CCCNS(=O)(=O)c2ccc(-c3ccccc3)cc2)n1"
6.36

Return the recorded pIC50 value; entry: "O=C(NCCCCn1cnc([N+](=O)[O-])n1)c1ccc(C(F)(F)F)cc1"
5.89

====

- Test system: L6
- PROTOCOL TEXT: Cytotoxicity against rat L6 cells
- Type: cell-based
Item-by-item account of pIC50
In textbook form, pIC50 equals minus log to base ten of the concentration in mol/L.

In the examples that follow, each entry is paired with its recorded pIC50.
COMPOUND STRING: O=C(NCCCn1cnc([N+](=O)[O-])n1)Nc1cc(C(F)(F)F)cc(C(F)(F)F)c1
pIC50: 4.62

COMPOUND STRING: O=C(NCCCn1cnc([N+](=O)[O-])n1)c1ccc2ccccc2n1
pIC50: 3.66

COMPOUND STRING: O=C(NCCCn1cnc([N+](=O)[O-])n1)c1ccc(-c2ccccc2)cc1
pIC50: 3.93

Return the recorded pIC50 value; entry: "Cc1ccc2nc(NC(=O)Cn3cnc([N+](=O)[O-])n3)sc2c1"
3.77

Return the recorded pIC50 value; entry: "O=C(Cn1cnc([N+](=O)[O-])n1)N1CCC(Cc2ccccc2)CC1"
3.84

Return the recorded pIC50 value; entry: "COc1cc([C@@H]2c3cc4c(cc3[C@H](O)[C@H]3COC(=O)[C@H]23)OCO4)cc(OC)c1OC"
7.66

Return the recorded pIC50 value; entry: "O=[N+]([O-])c1ncn(CCCNS(=O)(=O)c2ccc(Cl)s2)n1"
3.61

====

- Tested on: Trypanosoma brucei brucei
- PROTOCOL TEXT: Selectivity ratio of IC50 for Trypanosoma brucei brucei Lister 427 clone 221a overexpressing tet-inducible NTR in absence of tetracycline to IC50 for Trypanosoma brucei brucei overexpressing tet-inducible NTR in presence of tetracyclin
Item-by-item account of Ratio IC50
Reply with the value as a number alone.

COMPOUND: O=C(NCCCCn1cnc([N+](=O)[O-])n1)c1ccc(C(F)(F)F)cc1
TARGET OR SYSTEM: Trypanosoma brucei brucei
RECORDED MEASUREMENT: 10

Return the recorded Ratio IC50 value; entry: Nc1nc(N)nc(Nc2ccc([As]3SCC(CO)S3)cc2)n1 (configuration not stated) [MELARSOPROL]
1

Return the recorded Ratio IC50 value; entry: "O=[N+]([O-])c1ncn(CCCNS(=O)(=O)c2ccc(Cl)s2)n1"
19

Return the recorded Ratio IC50 value; entry: "O=C(NCCn1cnc([N+](=O)[O-])n1)c1ccc(C(F)(F)F)cc1"
14

Return the recorded Ratio IC50 value; entry: "O=C(NCCCCn1cnc([N+](=O)[O-])n1)c1ccc(OC(F)(F)F)cc1"
11

Return the recorded Ratio IC50 value; entry: "Cc1ccc(S(=O)(=O)NCCCn2cnc([N+](=O)[O-])n2)cc1"
23

Return the recorded Ratio IC50 value; entry: "O=C(NCCCn1cnc([N+](=O)[O-])n1)Nc1cc(C(F)(F)F)cc(C(F)(F)F)c1"
5

Return the recorded Ratio IC50 value; entry: "O=C(NCCCn1cnc([N+](=O)[O-])n1)c1ccc(-c2ccccc2)cc1"
6

Return the recorded Ratio IC50 value; entry: "O=[N+]([O-])c1ncn(CCCNS(=O)(=O)c2ccc(C(F)(F)F)cc2)n1"
31

Return the recorded Ratio IC50 value; entry: CC1CS(=O)(=O)CCN1/N=C/c1ccc([N+](=O)[O-])o1 (configuration not stated) [NIFURTIMOX]
13

Return the recorded Ratio IC50 value; entry: "O=[N+]([O-])c1ncn(CCCNS(=O)(=O)c2ccc(-c3ccccc3)cc2)n1"
6

Return the recorded Ratio IC50 value; entry: O=C(Cn1ccnc1[N+](=O)[O-])NCc1ccccc1 [BENZNIDAZOLE]
10

====

- PROTOCOL TEXT: Selectivity index, ratio of IC50 for rat L6 cells to IC50 for Trypanosoma cruzi Tulahuen C4 amastigotes
Item-by-item account of selectivity ratio
Reply with the value as a number alone.

In the examples that follow, each entry is paired with its recorded selectivity ratio.
COMPOUND STRING: O=[N+]([O-])c1ncn(CCNS(=O)(=O)c2ccc(C(F)(F)F)cc2)n1
RECORDED MEASUREMENT: 248
--
COMPOUND STRING: O=[N+]([O-])c1ncn(CCCCNS(=O)(=O)c2ccc(C(F)(F)F)cc2)n1
RECORDED MEASUREMENT: 120
--
COMPOUND STRING: O=[N+]([O-])c1ncn(CCCNS(=O)(=O)c2cc(C(F)(F)F)ccc2C(F)(F)F)n1
RECORDED MEASUREMENT: 178

Return the recorded selectivity ratio value; entry: "O=C(Cn1cnc([N+](=O)[O-])n1)NCc1ccc(C(F)(F)F)cc1"
133

Return the recorded selectivity ratio value; entry: "O=[N+]([O-])c1ncn(CCCCNS(=O)(=O)c2ccc(OC(F)(F)F)cc2)n1"
552

Return the recorded selectivity ratio value; entry: "O=C(NCCCn1cnc([N+](=O)[O-])n1)c1ccc2ccccc2n1"
1580

Return the recorded selectivity ratio value; entry: "O=[N+]([O-])c1ncn(CCCNS(=O)(=O)c2cc(C(F)(F)F)cc(C(F)(F)F)c2)n1"
338

Return the recorded selectivity ratio value; entry: "O=C(NCCCCn1cnc([N+](=O)[O-])n1)c1ccc(C(F)(F)F)cc1"
591

====

Item-by-item account of IC50
- System: L6
- PROTOCOL TEXT: Cytotoxicity against rat L6 cells
- Type: cell-based
Number in µM, nothing else.

In the examples that follow, each entry is paired with its recorded IC50.
COMPOUND STRING: O=C(Cn1cnc([N+](=O)[O-])n1)Nc1nc2ccc(Cl)cc2s1
IC50 [µM]: 163

COMPOUND STRING: O=[N+]([O-])c1nccn1CCCNS(=O)(=O)c1ccc(C(F)(F)F)cc1
IC50 [µM]: 176

Then there is this compound:
Return the recorded IC50 value; entry: "O=C(NCCCn1ccnc1[N+](=O)[O-])c1ccc(C(F)(F)F)cc1"
177
